Catalogue of melting point readings, one per entry.
Reported metric: melting point

> print(dat)
                                    compound  reported.result
 1  CCCc1c(O)c(C(C)=O)cc(Cl)c1OCCCOc1ccc2ccc(OCC(=O)OC)cc2c1C(C)=O    121 to 124 °C
 2     CCn1nc(Br)c([N+](=O)[O-])c1NCc1ccccc1            92 °C
 3  COC1=C2C(=C(C(C)C)CC1(C)OC)C(=O)N(CSc1nnnn1-c1ccccc1)S2(=O)=O (stereo not given)    169 to 171 °C
 4  COc1ccc(C(=CF)C(N)C(=O)O)cc1O (stereo not given)           214 °C
 5  C=CCOc1ccccc1OCC(O)CNC1CCC(N2CCNC2=O)CC1 (stereo not given)    154 to 155 °C
 6  Cc1c(F)c([N+](=O)[O-])cc([N+](=O)[O-])c1F      81 to 82 °C
 7               O=c1[nH]c2ccccc2n1C/C=C/CCl           120 °C
 8  Cc1cc(-n2c(C)nc3ccccc32)cc2ccc(=O)[nH]c12    307 to 313 °C
 9  CC(=O)CC(=O)N1CC(c2ccccc2)c2ccccc21 (stereo not given)      88 to 89 °C
10                 CN1C(=O)c2cccnc2NS1(=O)=O    290 to 292 °C

* * *

Reported metric: melting point

> print(dat)
                                    molecule  reported.metric  reported.result
 1  O=c1c2ncn(COCCO)c2nc2[nH]c(-c3ccc(Cl)s3)cn12    melting point    226 to 228 °C
 2                      O=C(Cl)c1ccc(CBr)cc1    melting point      56 to 58 °C
 3               C#CCOc1cc(Oc2ccc(F)cc2)ncn1    melting point          81.4 °C
 4             CCOC(=O)N1CCc2nnc(N(C)N)cc2C1    melting point    121 to 123 °C
 5  COc1ccc(S(=O)(=O)C(C)(Cc2ccccc2Br)C(=O)NO)cc1 (stereo not given)    melting point      93 to 96 °C
 6  CS(=O)(=O)c1ccc(-c2[nH]nc(C(=O)CCCO)c2-c2ccc(C#N)cc2)cc1    melting point    169 to 171 °C
 7  O=C1C(=O)c2ccc(Cl)cc2C2=C1SCC1(CCN(CC(O)Cc3ccccc3)CC1)O2 (stereo not given)    melting point      92 to 96 °C
 8  OC1OC(C2(c3ccccc3)CN2)N2CC12c1ccccc1 (stereo not given)    melting point      53 to 55 °C
 9  O=C(O)[C@H](Cc1ccccc1)Nc1c(NC(c2ccccc2)c2ccccc2)c(=O)c1=O    melting point    187 to 188 °C
10            CCS(=O)(=O)c1ncc(S(N)(=O)=O)s1    melting point    129 to 130 °C
11  CCOCN1C(C)=C(C(=O)O)C(c2cccc(Cl)c2Cl)C(C(=O)OC)=C1C (single isomer, unassigned; (+))    melting point    129 to 131 °C
12                  CCc1c(N)c(C(N)=O)nn1CCOC    melting point           131 °C
13  N#CN1CCC(Nc2ncc3ncnc(Nc4ccc(F)c(Cl)c4)c3n2)CC1    melting point    245 to 247 °C
14  O=C(NCc1cccnc1)c1[nH]c2ccc(Cl)cc2c1S(=O)(=O)c1ccccc1    melting point    263 to 264 °C
15                     CC(O)=CC(N)=NC(C)(C)C    melting point    119 to 125 °C
16  COC(=O)C(O)C(C)(Oc1ccc(Br)cc1)c1ccccc1 (stereo not given)    melting point    133 to 135 °C
17   CCCCOc1ccccc1Nc1ncc(C(=O)OCC)c(=O)[nH]1    melting point    209 to 211 °C
18  CCCCCCCCCCC1(CCCCCCCCCC)c2cc(Br)ccc2-c2ccc(N(c3ccccc3)c3ccccc3)cc21    melting point  66.8 to 69.2 °C
19  CCCc1c(C(C)=O)c2ccc(C(N)=O)cc2n1Cc1ccccc1Cl    melting point    208 to 211 °C
20  COC1CCN(c2cc3c(cc2C#Cc2ccccc2)NC(=O)CC(c2cccc(C#N)c2)=N3)CC1    melting point    250 to 251 °C
21             COc1ccc2c(c1)CN(Nc1ccncc1)CC2    melting point    188 to 189 °C
22  COc1c(C2CCN(CCCCNC(=O)c3ccc(-c4ccc(C#N)cc4)cc3)CC2)ccc2c1CCCC2    melting point           154 °C
23  Cc1ccc(-c2cc3onc(-c4ccccc4)c3c(=O)n2C)cc1    melting point    155 to 156 °C
24     Cc1ccc2nc(-c3ccccc3)c(-c3ccccc3)nc2c1    melting point    114 to 116 °C
25  CC(C)Oc1cc(N2C(=O)C3CCCCN3C2=O)c(F)cc1Cl (stereo not given)    melting point  60.5 to 64.5 °C
26  C=C(C)C(=O)OCCc1ccc(-c2ccc(OC(=O)C(=C)C)cc2)cc1    melting point           108 °C
27  CCN(CC)c1ccc(N(c2ccc(N(CC)CC)cc2)C2(c3ccc(N(CC)CC)cc3C)OC(=O)c3ccccc32)cc1 (stereo not given)    melting point      58 to 71 °C
28  O=C(OC1CCCCC1)c1ncn2c1[C@@H]1CCN1C(=O)c1cc(F)ccc1-2    melting point    231 to 232 °C
29  Cc1ccccc1-c1nnc(N2CCC(O)CC2)nc1-c1ccccc1C    melting point    155 to 156 °C
30  CCc1ccc2c(c1)C=Cc1oc(C)nc1C2c1cn(Cc2cccc(C(=O)Nc3n[nH]c(C(F)(F)F)n3)c2)c(=O)[nH]c1=S (stereo not given)    melting point    142 to 145 °C
31  CCN(O)C(=O)CCc1ccc2c(c1)C(=O)c1ccccc1CO2    melting point           120 °C
32  COc1ccncc1-c1ccc(OC2SCC(O)C(O)C2O)cn1 (stereo not given)    melting point           207 °C
33       O=C(O)CN(c1ccccc1)S(=O)(=O)c1ccccc1    melting point    166 to 167 °C
34  ON=C1c2ccccc2-c2c1c(-n1ccnc1)nc1ccc(Br)cc21    melting point    268 to 271 °C
35                  CCOC(=O)c1nc(N)sc1C(C)=O    melting point    162 to 164 °C
36  CC1(C)CC(=O)Nc2cc3nc(-c4ccc(-n5ccnc5)cc4)[nH]c3cc21    melting point         > 300 °C
37        Nc1ncc(Oc2ccc(Cl)cc2)c(N2CCNCC2)n1    melting point      93 to 95 °C
38  C[N+]1([O-])CC(c2ccccn2)C(=O)c2ccccc21 (stereo not given)    melting point    132 to 134 °C
39  COc1ccc2c(c1)CCCC2(CO)NC(=O)c1c(F)cccc1F (stereo not given)    melting point    174 to 175 °C
40                O=Cc1cc2cc3c(cc2nc1I)OCCO3    melting point    155 to 157 °C

// provenance: a melting point compilation (Tetko et al.; mined from patent text by program, amines drawn as free bases though some values may be those of a salt)
